Overview of reported IC50 across a group of compounds:
Target: WT-LRRK2 (recombinant GST-LRRK2 delta970) (Homo sapiens)
Construct: Recombinant GST-LRRK2 (delta970); GST (N); host or cells: baculovirus-infected Sf9 insect cells
Sequence (Q5S007 970-2527 limits assumed): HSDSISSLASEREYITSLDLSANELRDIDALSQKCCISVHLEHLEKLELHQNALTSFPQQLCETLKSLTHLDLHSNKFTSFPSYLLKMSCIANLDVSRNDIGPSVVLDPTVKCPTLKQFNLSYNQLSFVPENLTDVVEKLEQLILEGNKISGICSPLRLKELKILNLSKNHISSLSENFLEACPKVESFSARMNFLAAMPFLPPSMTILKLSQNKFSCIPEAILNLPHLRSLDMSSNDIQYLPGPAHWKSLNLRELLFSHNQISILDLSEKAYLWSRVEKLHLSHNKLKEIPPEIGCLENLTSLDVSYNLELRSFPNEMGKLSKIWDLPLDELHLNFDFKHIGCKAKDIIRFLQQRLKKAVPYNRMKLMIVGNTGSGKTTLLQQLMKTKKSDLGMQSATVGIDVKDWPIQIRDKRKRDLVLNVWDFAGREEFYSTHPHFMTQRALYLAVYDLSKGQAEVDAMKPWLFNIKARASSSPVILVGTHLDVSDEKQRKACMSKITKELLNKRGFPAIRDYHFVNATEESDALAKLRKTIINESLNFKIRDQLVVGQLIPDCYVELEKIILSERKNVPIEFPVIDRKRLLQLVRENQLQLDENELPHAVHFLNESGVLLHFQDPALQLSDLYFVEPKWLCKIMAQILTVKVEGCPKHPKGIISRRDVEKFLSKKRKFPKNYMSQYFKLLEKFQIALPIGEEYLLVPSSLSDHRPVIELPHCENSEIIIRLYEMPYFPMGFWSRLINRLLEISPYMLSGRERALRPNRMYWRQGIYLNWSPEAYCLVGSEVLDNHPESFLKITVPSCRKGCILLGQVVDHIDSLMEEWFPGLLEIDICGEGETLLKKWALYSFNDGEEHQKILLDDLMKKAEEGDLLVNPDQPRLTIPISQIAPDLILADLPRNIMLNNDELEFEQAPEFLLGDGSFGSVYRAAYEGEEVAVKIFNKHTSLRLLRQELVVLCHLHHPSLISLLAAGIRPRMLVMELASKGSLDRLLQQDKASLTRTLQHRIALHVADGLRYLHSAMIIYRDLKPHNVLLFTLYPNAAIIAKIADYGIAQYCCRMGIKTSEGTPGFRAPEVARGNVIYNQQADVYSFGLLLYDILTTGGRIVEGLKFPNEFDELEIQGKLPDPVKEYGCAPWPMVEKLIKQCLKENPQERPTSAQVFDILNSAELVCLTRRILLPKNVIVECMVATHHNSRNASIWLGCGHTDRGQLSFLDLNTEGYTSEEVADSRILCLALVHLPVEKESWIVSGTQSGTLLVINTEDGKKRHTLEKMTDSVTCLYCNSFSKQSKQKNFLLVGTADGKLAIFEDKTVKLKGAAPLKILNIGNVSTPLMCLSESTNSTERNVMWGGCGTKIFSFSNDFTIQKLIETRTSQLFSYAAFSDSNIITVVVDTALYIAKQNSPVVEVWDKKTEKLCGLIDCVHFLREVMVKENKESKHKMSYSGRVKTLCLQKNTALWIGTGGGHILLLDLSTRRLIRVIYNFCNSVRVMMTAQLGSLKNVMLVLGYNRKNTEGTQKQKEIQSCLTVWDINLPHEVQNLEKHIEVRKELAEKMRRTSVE
Test: LRRK2 kinase assay, wild type (32P radiometric, peptide substrate)
Type: biochemical
Settings: WT-LRRK2 30 nM, ATP ~92 μM (Km), 30 min at 30° C.
Experimental: Compounds were assessed for inhibition of LRRK2 inhibition using the following procedure. […] Each slot was then washed with 10 mM phosphoric acid buffer until beta-radiation could not be detected in eluted wash buffer, usually ˜1 mL per slot. Paper within each slot were excised and radiation measured by liquid scintillation.

C[C@H](Nc1nc(Nc2cn([C@@H](C)CO)nn2)nc2[nH]ccc12)C1CC1 [Compound 58] : 0.072 µM
CC(C)n1cc(Nc2nc(N[C@@H](C)c3ccccn3)c3cc[nH]c3n2)cn1 [Compound 35] : 0.066 µM
COCC(C)n1cc(Nc2nc(N[C@@H](C)C3CC3)c3cc[nH]c3n2)cn1 (stereo partly shown) [Compound 34] : 0.011 µM

# ---- query compound ----
Ask: Give WT-LRRK2 (recombinant GST-LRRK2 delta970) (Homo sapiens) IC50 for the following compound: CC(C)n1cc(Nc2nc(NC3CCC3)c3cc[nH]c3n2)cn1 [Compound 8]
Reply: 0.005 µM
